# tgt: human AspH (His6-AspH315–758) (Homo sapiens, UniProt Q12797)
# Construct: N-Terminally His6-tagged human AspH315–758 (His6-AspH315–758) was produced in Escherichia coli BL21 (DE3) cells; made in house; host or cells: Escherichia coli BL21 (DE3), pET-28a(+) vector
# Sequence (Q12797 315-758): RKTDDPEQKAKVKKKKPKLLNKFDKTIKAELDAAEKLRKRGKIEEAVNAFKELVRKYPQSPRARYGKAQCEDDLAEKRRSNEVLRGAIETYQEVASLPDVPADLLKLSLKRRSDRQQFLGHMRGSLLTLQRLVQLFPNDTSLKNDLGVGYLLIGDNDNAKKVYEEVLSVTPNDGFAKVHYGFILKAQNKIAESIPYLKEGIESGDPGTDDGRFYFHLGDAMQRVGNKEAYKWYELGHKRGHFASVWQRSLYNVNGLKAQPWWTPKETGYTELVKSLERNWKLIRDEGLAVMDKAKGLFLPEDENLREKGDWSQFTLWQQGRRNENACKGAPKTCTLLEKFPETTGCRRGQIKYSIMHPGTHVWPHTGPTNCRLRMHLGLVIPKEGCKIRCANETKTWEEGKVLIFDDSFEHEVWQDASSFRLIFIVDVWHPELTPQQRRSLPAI
# measurement-description: SPE-MS AspH inhibition assay (hFX-CP101-119 substrate hydroxylation)
# Format: biochemical
# condition: AspH-inhibitor screening, Plate 1-duplicate
assay-metric: Plate 1-duplicate (% inhibition) (%)
Reply numerically in %, unit not repeated.

Task: API: value(readout= Plate 1-duplicate (% inhibition), system= human AspH (His6-AspH315–758) (Homo sapiens, UniProt Q12797), query= O=C1c2c(O)ccc(O)c2C(=O)c2c(NCCNCCO)ccc(NCCNCCO)c21 )
Result: -22.19

Task: Missing value: Plate 1-duplicate (% inhibition), human AspH (His6-AspH315–758) (Homo sapiens, UniProt Q12797), entry CC(=O)O[C@@]12CO[C@@H]1C[C@H](O)[C@@]1(C)C(=O)[C@H](O)C3=C(C)[C@@H](OC(=O)[C@H](O)[C@@H](NC(=O)OC(C)(C)C)c4ccccc4)C[C@@](O)([C@@H](OC(=O)c4ccccc4)[C@H]21)C3(C)C . Fill in?
Result: 2.03

Task: Under human AspH (His6-AspH315–758) (Homo sapiens, UniProt Q12797): Plate 1-duplicate (% inhibition) value of Cc1ccc(Nc2nccc(N(C)c3ccc4c(C)n(C)nc4c3)n2)cc1S(N)(=O)=O ?
Result: -21.51

Values were extracted from paper PMC7588595.
